- method: Tested for dissociation constant of compound at PH of 7.4
- Format: ADME
- test.settings: pH 7.4
attribute.measured: pKa

Problem: Recorded pKa for O=C(c1ccc(NC(=O)C(O)(C(F)F)C(F)F)cc1)c1ccccn1 , please?
Solution: 7.5

====

- Species: Cavia porcellus
- method: The compound was tested for […] activity against guinea pig vascular tissue (portal vein) strip mildly depolarized with 15 mM KCl
- Assay type: functional
Provide the recorded IC50 for the entries that follow.
Express the reported value numerically, then name its unit.

Problem: So what's the measured IC50 for this one? CC1(C)Oc2ccc(C#N)cc2[C@H](N2CCCC2=O)[C@H]1O (single isomer, unassigned) [(-)-CROMAKALIM]
Solution: 20 nM

Problem: Next: O=C(c1ccc(NC(=O)C(O)(C(F)F)C(F)F)cc1)c1ccccn1
Solution: 3 nM
